# system: T1, K48-linked diubiquitin (human, UniProt P0CG48 1-76, isopeptide bond between Lys48 of one ubiquitin and the C-terminal Gly of the other)
# T1 construct: Boston Biochem
# test: SPR Biacore, antigen immobilized
measured-endpoint: Kd (nM)
Kindly answer with a numeric value in nM, unit omitted.

binder	unit-abbrev	Kd
Fab apu13 (Fab, V domains shown) VH: EVQLVESGGGLVQPGGSLRLSCAASGFNVSYYSIHWVRQAPGKGLEWVASIYPYYSYTSYADSVKGRFTISADTSKNTAYLQMNSLRAEDTAVYYCARSYSYSYGLDYWGQGTLVTVSS VL: DIQMTQSPSSLSASVGDRVTITCRASQSVSSAVAWYQQKPGKAPKLLIYSASSLYSGVPSRFSGSRSGTDFTLTISSLQPEDFATYYCQQYSSSYYPFTFGQGTKVEIK	nM	139
Fab apu07 (Fab, V domains shown) VH: EVQLVESGGGLVQPGGSLRLSCAASGFNLSYSYIHWVRQAPGKGLEWVASISSYYGSTSYADSVKGRFTISADTSKNTAYLQMNSLRAEDTAVYYCARESFYYSPAFDYWGQGTLVTVSS VL: DIQMTQSPSSLSASVGDRVTITCRASQSVSSAVAWYQQKPGKAPKLLIYSASSLYSGVPSRFSGSRSGTDFTLTISSLQPEDFATYYCQQSYYYSLFTFGQGTKVEIK	nM	9.49

## Input I would be grateful if you could share the reported Kd for Fab apu11 (Fab, V domains shown) VH: EVQLVESGGGLVQPGGSLRLSCAASGFNVSYYYIHWVRQAPGKGLEWVASISSYYGYTSYADSVKGRFTISADTSKNTAYLQMNSLRAEDTAVYYCARENYWWAIDYWGQGTLVTVSS VL: DIQMTQSPSSLSASVGDRVTITCRASQSVSSAVAWYQQKPGKAPKLLIYSASSLYSGVPSRFSGSRSGTDFTLTISSLQPEDFATYYCQQSYYYYPITFGQGTKVEIK .
## Output 19.6
